# target-or-system: KRAS G12D (Homo sapiens, UniProt P01116, G12D)
# Construct: made in house; host or cells: E. coli, e.g. BL21 (DE3)
# Sequence (P01116 1-188 isoform P01116-2 G12D): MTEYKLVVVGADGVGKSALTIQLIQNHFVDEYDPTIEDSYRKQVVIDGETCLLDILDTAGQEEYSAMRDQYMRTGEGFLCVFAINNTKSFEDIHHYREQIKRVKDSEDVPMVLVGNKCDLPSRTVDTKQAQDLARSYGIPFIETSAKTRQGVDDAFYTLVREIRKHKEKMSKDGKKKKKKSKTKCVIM
# assay: HTRF assay of K-Ras G12D interaction with SOS1 (PPI-HTRF)
# Assay type: binding
# settings: HTRF, 5 nM KRAS G12D; read-out: PPI-HTRF-5 nM KRAS G12D
attribute-measured: IC50

Problem: Endpoint output: IC50 of Cc1ncn(C(=O)N2CC[C@]23CCN(c2nc(OC[C@@]45CCCN4C[C@H](F)C5)nc4c(F)c(-c5ccc(F)c6sc(N)c(C#N)c56)c(Cl)cc24)C3)n1 [Compound 222] . Value?
Solution: < 5 µM

Problem: Endpoint output: IC50 of C[C@@H]1C[C@@]2(CCN2)CN1c1nc(OC[C@@]23CCCN2C[C@H](F)C3)nc2c(F)c(-c3ccc(F)c4sc(N)c(C#N)c34)c(Cl)cc12 [Compound 335] . Value?
Solution: < 5 µM

Problem: Endpoint output: IC50 of N#Cc1c(N)sc2c(F)ccc(-c3c(Cl)cc4c(N5CCCC6(CCCN6)C5)nc(OC[C@@]56CCCN5C[C@H](F)C6)nc4c3F)c12 (some centres unmarked) [Compound 218] . Value?
Solution: < 5 µM

Problem: Endpoint output: IC50 of Cc1ncn(C(=O)N2CC[C@@]23CCN(c2nc(OC[C@@]45CCCN4C[C@H](F)C5)nc4c(F)c(-c5ccc(F)c6sc(N)c(C#N)c56)c(Cl)cc24)C3)n1 (atropisomer, axis not shown; (aS)) [Compound 338] . Value?
Solution: < 5 µM

Problem: Endpoint output: IC50 of C#Cc1c(F)ccc2cc(O)cc(-c3ncc4c(N5CCC6(CCN6C(=O)n6cncn6)C5)nc(OC[C@@]56CCCN5C[C@H](F)C6)nc4c3F)c12 (some centres unmarked) [Compound 270] . Value?
Solution: < 5 µM

====

# target-or-system: KRAS G12S (Homo sapiens, UniProt P01116, G12S)
# Construct: made in house; host or cells: E. coli, e.g. BL21 (DE3)
# Sequence (P01116 1-188 isoform P01116-2 G12S): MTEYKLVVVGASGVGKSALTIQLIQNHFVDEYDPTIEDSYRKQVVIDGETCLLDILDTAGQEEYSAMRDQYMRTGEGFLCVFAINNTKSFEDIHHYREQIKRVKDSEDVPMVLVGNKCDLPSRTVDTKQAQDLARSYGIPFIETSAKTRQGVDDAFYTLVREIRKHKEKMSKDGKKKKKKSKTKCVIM
# assay: HTRF assay of K-Ras G12S interaction with SOS1 (PPI-HTRF)
# Type: binding
# settings: 5 nM KRAS G12S, read-out: PPI-HTRF-5 nM KRAS G12S
# Text: This assay can be also used to assess a selective inhibition or reduction of signaling output of a mutant Ras protein relative to a wildtype, or relative to a different mutant Ras protein. For example, the equilibrium interaction of wildtype Kras or K-Ras mutant (e.g., wildtype or a mutant thereof including those mentioned in Example 4) with SOS1 (e.g., hSOS1) can be assessed as a proxy or an indication for a subject compound's ability to bind and inhibit Ras protein. […]
Listed next: entries and their corresponding IC50.

>>> value_observed("N#Cc1c(N)sc2c(F)ccc(-c3c(Cl)cc4c(N5CCC6(CCCN6C(=O)C6CC6(F)F)CC5)nc(OC[C@@]56CCCN5C[C@H](F)C6)nc4c3F)c12 (stereo partly drawn)")
"< 5 µM"
>>> value_observed("Cc1cc(N)c(F)c(-c2c(Cl)cc3c(N4CCC5(CCN5C(=O)n5cncn5)C4)nc(OC[C@@]45CCCN4C[C@H](F)C5)nc3c2F)c1C(F)(F)F (stereo partly drawn)")
"> 5 µM"

Now consider a different molecule.
Problem: Endpoint output: IC50 of N#Cc1c(N)sc2c(F)ccc(-c3c(Cl)cc4c(N5CCCCC6(CCN6C(=O)n6cncn6)C5)nc(OC[C@@]56CCCN5C[C@H](F)C6)nc4c3F)c12 (stereo partly drawn) . Value?
Solution: < 5 µM
